The reported measurements were obtained from patent US11236102B2.

- PROTOCOL TEXT: Oral absorption / oral bioavailability of 151 and 100
- CONDITION DESCRIPTION: rat, in vivo
MEASUREMENT TYPE: bioavailability

Query string: Look up bioavailability for this molecule: COC(=O)C1C2CCC(O2)C1C(=O)N1CCN(C)CC1 (stereo not shown) [Compound 151]
Result string: ~60%

----------
- PROTOCOL TEXT: in vivo
- CONDITION DESCRIPTION: male, SD, rat, iv, 1.4 mg/kg, Liver-plasma concentration ratio of Endothal
MEASUREMENT TYPE: Kp at 0.25 hr
Please give only the number in your answer, with no unit.

Query string: Reported Kp at 0.25 hr, compound O=C(O)C1C2CCC(O2)C1C(=O)O (stereo not shown) [Endothal] : ____
Result string: 29.2

----------
- PROTOCOL TEXT: in vivo
- Design: species or system SD rats
- CONDITION DESCRIPTION: male, Sprague-Dawley, rat, in vivo; 105 in plasma, IV 1 mg/kg, mean
MEASUREMENT TYPE: clearance
# do not omit the unit; it follows the number

Query string: Please report the recorded clearance for CCN1CCN(C(=O)C2C3CCC(O3)C2C(=O)O)CC1 (stereo not shown) .
Result string: 10.9 mL/min/kg

----------
- PROTOCOL TEXT: Pharmacokinetic study of 151 (iv, oral) in SD rats: 151 and 100 in plasma
- Assay type: in vivo
- CONDITION DESCRIPTION: male, Sprague-Dawley, rat, in vivo, po, 10 mg/kg, 151 PO 10 mg/kg, SD rats, 9.0 h, individual rats
MEASUREMENT TYPE: concentration at 9 h (ng/mL)
Quick reminder: number only, in ng/mL, skip the unit.

Query string: Name the recorded concentration at 9 h for COC(=O)C1C2CCC(O2)C1C(=O)N1CCN(C)CC1 (stereo not shown) .
Result string: 52.1

----------
- PROTOCOL TEXT: Pharmacokinetic study of 151 (iv, oral) in SD rats: 151 and 100 in plasma
- Assay type: in vivo
- CONDITION DESCRIPTION: male, Sprague-Dawley, rat, in vivo, po, 10 mg/kg, plasma, 151 PO 10 mg/kg, SD rats, mean; read-out: AUC0-t of 151
MEASUREMENT TYPE: AUC(0-t) (µg·h/mL)
Reply numerically in µg·h/mL, unit not repeated.

Query string: Which measured AUC(0-t) value corresponds to COC(=O)C1C2CCC(O2)C1C(=O)N1CCN(C)CC1 (stereo not shown) [Compound 151] ?
Result string: 6.34

----------
- PROTOCOL TEXT: Pharmacokinetic study of 151 (iv, oral) in SD rats: 151 and 100 in plasma
- Format: in vivo
- CONDITION DESCRIPTION: male, Sprague-Dawley, rat, in vivo, iv, 1 mg/kg, plasma, 151 IV 1.0 mg/kg, SD rats, mean; read-out: AUC0-t of 151
MEASUREMENT TYPE: AUC(0-t) (ng·h/mL)
Express the result in ng·h/mL but write the number alone.

Query string: GET /values?readout=AUC(0-t)&item= COC(=O)C1C2CCC(O2)C1C(=O)N1CCN(C)CC1 (stereo not shown)
Result string: 1170

----------
- PROTOCOL TEXT: in vivo
- Set-up: species or system SD rats
- CONDITION DESCRIPTION: male, SD, rat, in vivo; 105 in liver, IV 1 mg/kg, mean; read-out: AUC(0-t)
MEASUREMENT TYPE: AUC(0-t)
Field format: numeric only.

Query string: Return reported AUC(0-t); argument: CCN1CCN(C(=O)C2C3CCC(O3)C2C(=O)O)CC1 (stereo not shown)
Result string: 1020

----------
- PROTOCOL TEXT: Pharmacokinetic study of 151 (iv, oral) in SD rats: 151 and 100 in plasma
- Format: in vivo
- CONDITION DESCRIPTION: male, Sprague-Dawley, rat, in vivo, iv, 1 mg/kg, 151 IV 1.0 mg/kg, SD rats, 2.0 h, mean
MEASUREMENT TYPE: concentration at 2 h (ng/mL)
Write the value in ng/mL as a bare number.

Query string: Given the compound COC(=O)C1C2CCC(O2)C1C(=O)N1CCN(C)CC1 (stereo not shown) , what is its reported concentration at 2 h?
Result string: 99.6

----------
- PROTOCOL TEXT: in vivo
- Set-up: species or system SD rats
- CONDITION DESCRIPTION: male, SD, rat, in vivo, iv, 1 mg/kg, IV 1 mg/kg, 0.25 hr, individual; read-out: Liver-plasma concentration ratio of 105
MEASUREMENT TYPE: Kp at 0.25 h
Just the number.

Query string: # query: Kp at 0.25 h of entry CCN1CCN(C(=O)C2C3CCC(O3)C2C(=O)O)CC1 (stereo not shown)
Result string: 0.554

----------
- PROTOCOL TEXT: Pharmacokinetic study of 153 (iv, po) in SD rats: 153 and endothal in plasma, liver, brain
- Type: in vivo, SD rats
- CONDITION DESCRIPTION: female, Sprague-Dawley, rat, in vivo, po, 1.25 mg/kg, PO 1.25 mg/kg, 2 hr, mean; read-out: 153 plasma concentration
MEASUREMENT TYPE: concentration at 2 hr (ng/mL)
The response must be a number in ng/mL with no trailing unit.

Query string: What value of concentration at 2 hr has been recorded for this entry: CCCOC(=O)C1C2CCC(O2)C1C(=O)N1CCN(C)CC1 (stereo not shown)
Result string: 41.6

----------
- PROTOCOL TEXT: Pharmacokinetic study of 153 (iv, po) in SD rats: 153 and endothal in plasma, liver, brain
- Assay type: in vivo, SD rats
- CONDITION DESCRIPTION: female, Sprague-Dawley, rat, in vivo, po, 1.25 mg/kg, PO 1.25 mg/kg, 0.25 hr, mean
MEASUREMENT TYPE: concentration at 0.25 hr (µg/mL)
Entry rule: numbers only, all in µg/mL.

Query string: # query: concentration at 0.25 hr of entry CCCOC(=O)C1C2CCC(O2)C1C(=O)N1CCN(C)CC1 (stereo not shown)
Result string: 0.762

----------
- PROTOCOL TEXT: Pharmacokinetic study of 151 (iv, oral) in SD rats: 151 and 100 in plasma
- Type: in vivo
- CONDITION DESCRIPTION: male, Sprague-Dawley, rat, in vivo, po, 10 mg/kg, 151 PO 10 mg/kg, SD rats, 2.0 h, individual rats
MEASUREMENT TYPE: concentration at 2 h (ng/mL)
Reply with just the number (in ng/mL).

Query string: Endpoint output: concentration at 2 h of COC(=O)C1C2CCC(O2)C1C(=O)N1CCN(C)CC1 (stereo not shown) . Value?
Result string: 1100

----------
- PROTOCOL TEXT: Pharmacokinetic study of 151 (iv, oral) in SD rats: 151 and 100 in plasma
- Assay type: in vivo
- CONDITION DESCRIPTION: male, Sprague-Dawley, rat, in vivo, po, 10 mg/kg, plasma, 151 PO 10 mg/kg, SD rats, individual rats; read-out: AUC0-t of 151
MEASUREMENT TYPE: AUC(0-t) (ng·h/mL)
Reply with just the number (in ng·h/mL).

Query string: Using the record for COC(=O)C1C2CCC(O2)C1C(=O)N1CCN(C)CC1 (stereo not shown) [Compound 151] , report its AUC(0-t).
Result string: 5400

----------
- PROTOCOL TEXT: Pharmacokinetic study of 151 (iv, oral) in SD rats: 151 and 100 in plasma
- Assay type: in vivo
- CONDITION DESCRIPTION: male, Sprague-Dawley, rat, in vivo, iv, 1 mg/kg, 151 IV 1.0 mg/kg, SD rats, 9.0 h, mean
MEASUREMENT TYPE: concentration at 9 h

Query string: Need concentration at 9 h, item COC(=O)C1C2CCC(O2)C1C(=O)N1CCN(C)CC1 (stereo not shown)
Result string: 1 ng/mL

----------
Answer each item with its documented half-life.
- PROTOCOL TEXT: in vivo
- Type: in vivo
- CONDITION DESCRIPTION: Sprague-Dawley, rat, in vivo

Query string: Entry CN1CCN(C(=O)C2C3CCC(O3)C2C(=O)O)CC1 (centres unmarked) : reported half-life = ?
Result string: ≤ 1 h

Query string: Any idea what half-life was measured for O=C(O)C1C2CCC(O2)C1C(=O)O (centres unmarked) [Endothal] ?
Result string: ~6 h

----------
- PROTOCOL TEXT: in vivo
- CONDITION DESCRIPTION: male, SD, rat, iv, 1.4 mg/kg, Liver-plasma concentration ratio of Endothal, 113 IV 1.4 mg/kg, SD rats, 2 hr, individual
MEASUREMENT TYPE: Kp at 2 hr
Provide a numeric answer; units are not to be included.

Query string: Param item = O=C(O)C1C2CCC(O2)C1C(=O)O (stereo not shown) [Endothal] ; retrieve measured Kp at 2 hr.
Result string: 45.7
